assay: Comparison of PK in DIO mice and lean mice; format: in vivo, mouse; conditions: C57BL/6N, mouse, plasma, po; DIO mice, Non-fasted PK, 10 mg/kg, p.o. (Table 57)
metric: Tmax (h)
Please give a number only; it is taken to be in h.

The compound identified as N#Cc1ccc(CCNC(=O)[C@@H]2CCN2c2cc(N3CCC(CCNC(=O)NCCC(=O)O)CC3)nc(C(F)(F)F)n2)cc1 registered its Tmax at 1

----------
biological target: human TGR5 receptor (Homo sapiens, UniProt Q8TDU6); experiment: Human TGR5 cAMP production assay (hTGR5-CHO cells, DiscoveRx cAMP XS+ kit); details: luminescent cAMP assay, read-out: Human TGR5 Lum. cAMP Activity (EC50)
Sequence (Q8TDU6 whole entry): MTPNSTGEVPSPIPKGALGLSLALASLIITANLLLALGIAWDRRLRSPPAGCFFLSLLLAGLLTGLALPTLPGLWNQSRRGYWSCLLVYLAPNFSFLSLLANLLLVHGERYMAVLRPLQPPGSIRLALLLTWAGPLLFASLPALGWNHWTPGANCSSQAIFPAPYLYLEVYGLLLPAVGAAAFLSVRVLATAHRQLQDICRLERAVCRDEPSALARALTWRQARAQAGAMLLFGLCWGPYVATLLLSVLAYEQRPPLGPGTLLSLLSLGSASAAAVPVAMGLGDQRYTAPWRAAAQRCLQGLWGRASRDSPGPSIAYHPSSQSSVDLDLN
pEC50: −log10 of the molar value. Structures can show the parent of a compound that is named as a salt.
metric: pEC50

COCCN1CCN(c2cc(N3CCC[C@@H](C(=O)NCCc4ccc(C(F)(F)F)cc4)C3)nc(C(F)(F)F)n2)CC1	> 7.00
O=C(O)CCNC(=O)NCCC1CCN(c2cc(N3CCC[C@H]3C(=O)NCCc3ccc(-c4ccccn4)cc3)nc(C(F)(F)F)n2)CC1	4.52 to 6.00
N#Cc1ccc(CCNC(=O)[C@@H]2CCCN2c2cc(-c3ccccn3)nc(C(F)(F)F)n2)cc1	6.00 to 7.00
N#Cc1ccc(CCNC(=O)[C@@H]2CCCN2c2cc(-c3csc(CO)c3)nc(C(F)(F)F)n2)cc1	6.00 to 7.00
NCCNC(=O)CCCC1CCN(c2cc(N3CCC[C@H]3C(=O)NCCc3ccc(C(F)(F)F)cc3)nc(C(F)(F)F)n2)CC1 [Compound 90, hydrochloride]	> 7.00

The compound identified as N#Cc1ccc(CCNC(=O)[C@@H]2CCCN2c2cc(-c3ccc(CO)cc3)nc(C(F)(F)F)n2)cc1 registered its pEC50 at > 7.00

The compound identified as N#Cc1ccc(CCNC(=O)[C@@H]2C[C@@H](O)CN2c2cc(N3CCC(CO)CC3)nc(C(F)(F)F)n2)cc1 registered its pEC50 at 6.00 to 7.00

The compound identified as CC(C)(C)OC(=O)N1CCC(Oc2cc(N3CCC[C@H]3C(=O)NCCc3ccc(C#N)cc3)nc(C(F)(F)F)n2)CC1 registered its pEC50 at 6.00 to 7.00

The compound identified as CN(C)CCC1CCN(c2cc(N3CC[C@H]3C(=O)NCCc3ccc(C#N)cc3)nc(C(F)(F)F)n2)CC1 registered its pEC50 at > 7.00

The compound identified as N#Cc1ccc(CCNC(=O)[C@@H]2CCCN2c2cc(N3CCC(CCCC(=O)O)CC3)nc(C(F)(F)F)n2)cc1 registered its pEC50 at > 7.00

----------
target: human TGR5 receptor (Homo sapiens); assay: Human TGR5 cAMP production assay (hTGR5-CHO cells, DiscoveRx cAMP XS+ kit); settings: luminescent cAMP assay, read-out: Human TGR5 Lum. cAMP Activity (EC50)
metric: EC50

The compound identified as O=C(NCCc1ccc(C(F)(F)F)cc1)[C@@H]1CCCN1c1cc(NCc2ccncc2)nc(C(F)(F)F)n1 [Compound 3] registered its EC50 at 1000 to 30000 nM

----------
Recorded pEC50 by entry
Target: mouse TGR5 receptor (Mus musculus, UniProt Q80SS6)
Construct: host or cells: HEK293-EBNA (293 c18, ATCC CRL10852)
Sequence (Q80SS6 1-329): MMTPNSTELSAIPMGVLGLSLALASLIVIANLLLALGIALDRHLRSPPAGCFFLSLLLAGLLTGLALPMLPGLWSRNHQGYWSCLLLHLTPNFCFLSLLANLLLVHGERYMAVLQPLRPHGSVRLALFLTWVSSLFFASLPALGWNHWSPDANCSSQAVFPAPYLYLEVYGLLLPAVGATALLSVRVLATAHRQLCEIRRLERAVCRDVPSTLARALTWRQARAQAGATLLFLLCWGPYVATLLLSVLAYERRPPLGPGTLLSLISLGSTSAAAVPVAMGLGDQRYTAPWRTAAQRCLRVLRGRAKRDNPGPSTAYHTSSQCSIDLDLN
Experiment: Mouse TGR5 HTRF cAMP production assay (HEK293-EBNA cells, Cisbio cAMP HiRange kit)
Format: cell-based
Settings: HEK293-EBNA cells overexpressing mouse TGR5, HTRF cAMP assay
pEC50: −log10 of the molar value.

Use the examples below as a reference point.
N#Cc1ccc(CCNC(=O)[C@@H]2CCCN2c2cc(N3CCC(CCNC(=O)NCCC(=O)O)CC3)nc(C(F)(F)F)n2)cc1 [Compound 81]	> 7.00
COC(=O)C(=O)N1CCN(c2cc(N3CCC[C@@H](C(=O)NCCc4ccc(C(F)(F)F)cc4)C3)nc(C(F)(F)F)n2)CC1 [Compound 339]	6.00 to 7.00
N=C(N)NCCCC1CCN(c2cc(N3CCC[C@H]3C(=O)NCCc3ccc(C(F)(F)F)cc3)nc(C(F)(F)F)n2)CC1 [Compound 132]	> 7.00
CCOC(=O)CCNC(=O)N1CCN(c2cc(N3CCC[C@@H](C(=O)NCCc4ccc(C(F)(F)F)cc4)C3)nc(C(F)(F)F)n2)CC1 [Compound 343]	> 7.00
N#Cc1ccc(CCNC(=O)[C@@H]2CCN2c2cc(N3CCC(CCNS(=O)(=O)CCNC(=O)[C@@H](N)CS(=O)(=O)O)CC3)nc(C(F)(F)F)n2)cc1 [Compound 363]	> 7.00

Moving on to another molecule below.
The molecule identified as N#Cc1ccc(CCNC(=O)[C@@H]2CCCN2c2cc(N3CCC(CCCC(=O)NCCNc4cc(C(=O)O)ncn4)CC3)nc(C(F)(F)F)n2)cc1 [Compound 101] registered its pEC50 at > 7.00
